# test-name: Pharmacokinetic study in vivo, plasma theophylline by HPLC
# condition-context: male, rabbit, rabbits, intravenous injection, n = 5
# Procedure: The male rabbits were used as an animal model in this invention. […] Blood samples were collected at specific time points, and the plasma concentrations of theophylline were analyzed by high-performance liquid chromatography equipped with a reverse-phase column (Hypersil BDS C18, 250×4.6 mm, 5 μm) and a UV spectrophotometer at a wavelength of 272 nm (Shimadzu SPD-6AV). […]
readout: Cmax (ng/mL)
Respond numerically; units are ng/mL and should not be typed.

Which Cmax is listed for `Cn1c(=O)c2[nH]cnc2n(C)c1=O` ? 21200

###

# test-name: Pharmacokinetic study in vivo, plasma theophylline by HPLC
# condition-context: male, rabbit, rabbits, intravenous injection, n = 5
readout: Tmax (min)
Respond numerically; units are min and should not be typed.

Which Tmax is listed for `Cn1c(=O)c2[nH]cnc2n(C)c1=O` ? 15
